tested on: HCC2998 (Colorectal Carcinoma); assay: Bliss excess, mean over the matrix (fraction); higher = more synergy
As shown below, each of these compounds has a reported Bliss excess value.
Field format: numeric only.

compound	Bliss excess
CC1(C)CCC(CN2CCN(c3ccc(C(=O)NS(=O)(=O)c4ccc(NCC5CCOCC5)c([N+](=O)[O-])c4)c(Oc4cnc5[nH]ccc5c4)c3)CC2)=C(c2ccc(Cl)cc2)C1 [Venetoclax] + CN(C)CCCOc1ccc(-c2ccc3ncc4c(c3c2)n(C2CCOCC2)c(=O)n4C)cn1 [AZD0156] (first compound max 1 µM, 7x7, partner max 1 µM)	-0.0292
COc1cc2c(cc1OCCCCCOc1cc3c(cc1OC)C(=O)N1C=C(C)C[C@H]1C=N3)N=C[C@@H]1CC(C)=CN1C2=O [SG3199] + O=C(c1cc(Cc2n[nH]c(=O)c3ccccc23)ccc1F)N1CCN(C(=O)C2CC2)CC1 [Olaparib] (first compound max 0.001 µM, 7x7, partner max 10 µM)	-0.0099

Q. Please give the measured Bliss excess for this compound: C[C@@H](c1ccc2nccn2c1)n1nnc2ncc(-c3cnn(C)c3)nc21 [Savolitinib] + Cc1c2c(nn1C)CSCc1cc(n(C)n1)CSc1cc(c3ccccc3c1)OCCCc1c(C(=O)O)n(C)c3c-2c(Cl)ccc13 [AZD5991] (first compound max 1 µM, 7x7, partner max 1 µM)
A. -0.0463

====

Below, each entry is listed alongside its reported Bliss excess.
system: NCI-H1092 (Small Cell Lung Carcinoma); assay: Bliss excess, mean over the matrix (fraction); higher = more synergy
Reply with the value as a number alone.

Guide cases for Bliss excess, answers given:
molecule	testedTarget	measurement
COc1cccc(OCCCN)c1-c1cc(Nc2cnc(C#N)cn2)n[nH]1 [Prexasertib] + CCc1c2c(nc3ccc(O)cc13)-c1cc3c(c(=O)n1C2)COC(=O)[C@]3(O)CC [SN-38] (first compound max 1 µM, 7x7, partner max 0.3 µM)	NCI-H1092 (Small Cell Lung Carcinoma)	0.0354
Cc1c2c(nn1C)CSCc1cc(n(C)n1)CSc1cc(c3ccccc3c1)OCCCc1c(C(=O)O)n(C)c3c-2c(Cl)ccc13 [AZD5991] + CC1(C)CCC(CN2CCN(c3ccc(C(=O)NS(=O)(=O)c4ccc(NCC5CCOCC5)c([N+](=O)[O-])c4)c(Oc4cnc5[nH]ccc5c4)c3)CC2)=C(c2ccc(Cl)cc2)C1 [Venetoclax] (first compound max 1 µM, 7x7, partner max 1 µM)	NCI-H1092 (Small Cell Lung Carcinoma)	0.117
Cc1cc2ncnn2cc1Nc1ncc2c(n1)n(C1CCOCC1)c(=O)n2C [AZD7648] + C[C@@H]1COCCN1C2=NC(=NC(=C2)C3(CC3)[S@](=N)(=O)C)C4=C5C=CNC5=NC=C4 [AZD6738] (first compound max 10 µM, 7x7, partner max 10 µM)	NCI-H1092 (Small Cell Lung Carcinoma)	0.0073

With those in mind, consider the next molecule.
Q. Fill in: Bliss excess of COc1cccc(OCCCN)c1-c1cc(Nc2cnc(C#N)cn2)n[nH]1 [Prexasertib] + Cc1cc2ncnn2cc1Nc1ncc2c(n1)n(C1CCOCC1)c(=O)n2C [AZD7648] (first compound max 1 µM, 7x7, partner max 10 µM) is ___
A. -0.0287

====

tested on: ME-180 (Cervical Carcinoma); test: Bliss excess, mean over the matrix (fraction); higher = more synergy
propertyLabel: Bliss excess
// return just the number, without any unit appended

compound	propertyLabel	measurement
CC1(C)CCC(CN2CCN(c3ccc(C(=O)NS(=O)(=O)c4ccc(NCC5CCOCC5)c([N+](=O)[O-])c4)c(Oc4cnc5[nH]ccc5c4)c3)CC2)=C(c2ccc(Cl)cc2)C1 [Venetoclax] + Cn1cnc2c(F)c(Nc3ccc(Br)cc3Cl)c(C(=O)NOCCO)cc21 [Selumetinib] (first compound max 1 µM, 7x7, partner max 3 µM)	Bliss excess	-0.01

Now consider the entry below.
Q. Consider the compound shown here: Cc1cc2ncnn2cc1Nc1ncc2c(n1)n(C1CCOCC1)c(=O)n2C [AZD7648] + O=C(c1cc(Cc2n[nH]c(=O)c3ccccc23)ccc1F)N1CCN(C(=O)C2CC2)CC1 [Olaparib] (first compound max 10 µM, 7x7, partner max 10 µM) What is its recorded Bliss excess?
A. -0.0432

====

test system: Hey (Ovarian Carcinoma); assay: Bliss excess, mean over the matrix (fraction); higher = more synergy
propertyLabel: Bliss excess
Answer with a number only.

compound	testedTarget	propertyLabel	measurement
CCc1c2c(nc3ccc(O)cc13)-c1cc3c(c(=O)n1C2)COC(=O)[C@]3(O)CC [SN-38] + CN(C)CCCOc1ccc(-c2ccc3ncc4c(c3c2)n(C2CCOCC2)c(=O)n4C)cn1 [AZD0156] (first compound max 0.3 µM, 7x7, partner max 1 µM)	Hey (Ovarian Carcinoma)	Bliss excess	0.0372
COc1cccc(OCCCN)c1-c1cc(Nc2cnc(C#N)cn2)n[nH]1 [Prexasertib] + CCc1c2c(nc3ccc(O)cc13)-c1cc3c(c(=O)n1C2)COC(=O)[C@]3(O)CC [SN-38] (first compound max 1 µM, 7x7, partner max 0.3 µM)	Hey (Ovarian Carcinoma)	Bliss excess	-0.0717
NC1(C(=O)N[C@@H](CCO)c2ccc(Cl)cc2)CCN(c2ncnc3[nH]ccc23)CC1 [Capivasertib] + CCN(CCO)CCCOc1ccc2c(Nc3cc(CC(=O)Nc4cccc(F)c4)[nH]n3)ncnc2c1 [AZD2811] (first compound max 10 µM, 7x7, partner max 1 µM)	Hey (Ovarian Carcinoma)	Bliss excess	0.0375
CN(CCO)CC[C@H](CSc1ccccc1)Nc1ccc(S(=O)(=O)NC(=O)c2ccc(N3CCC([C@@H](O)c4ccccc4-c4ccc(Cl)cc4)CC3)cc2)cc1S(=O)(=O)C(F)(F)F [AZD4320] + C1CN(CCC1(C(=O)N[C@@H](CCO)C2=CC=C(C=C2)Cl)N)C3=NC=NC4=C3C=CN4 [Capivasertib] (first compound max 1 µM, 7x7, partner max 3 µM)	Hey (Ovarian Carcinoma)	Bliss excess	-0.0385
Cc1c2c(nn1C)CSCc1cc(n(C)n1)CSc1cc(c3ccccc3c1)OCCCc1c(C(=O)O)n(C)c3c-2c(Cl)ccc13 [AZD5991] + C=CCn1c(=O)c2cnc(Nc3ccc(N4CCN(C)CC4)cc3)nc2n1-c1cccc(C(C)(C)O)n1 [AZD1775] (first compound max 1 µM, partner max 1 µM)	Hey (Ovarian Carcinoma)	Bliss excess	-0.0325
COc1nnc2ccc(N3CCC(c4ccc(OCCN5CCN(C)C(=O)[C@H]5C)cc4)CC3)nn12 [AZD5153] + C[C@@H]1COCCN1C2=NC(=NC(=C2)C3(CC3)[S@](=N)(=O)C)C4=C5C=CNC5=NC=C4 [AZD6738] (first compound max 1 µM, 7x7, partner max 10 µM)	Hey (Ovarian Carcinoma)	Bliss excess	-0.0048
COc1cccc(OCCCN)c1-c1cc(Nc2cnc(C#N)cn2)n[nH]1 [Prexasertib] + C=CCn1c(=O)c2cnc(Nc3ccc(N4CCN(C)CC4)cc3)nc2n1-c1cccc(C(C)(C)O)n1 [AZD1775] (first compound max 1 µM, partner max 1 µM)	Hey (Ovarian Carcinoma)	Bliss excess	0.11

Q. Sample CCN(CCO)CCCOc1ccc2c(Nc3cc(CC(=O)Nc4cccc(F)c4)[nH]n3)ncnc2c1 [AZD2811] + C[C@@H]1COCCN1C2=NC(=NC(=C2)C3(CC3)[S@](=N)(=O)C)C4=C5C=CNC5=NC=C4 [AZD6738] (first compound max 1 µM, 7x7, partner max 10 µM) — what was its Bliss excess?
A. -0.0498

====

test system: MOG-G-UVW (Low Grade Glioma); assay: combination Emax (second highest fraction inhibited in the dose matrix, 72 h); higher = more inhibition; extreme values may be limits of the assay
Quick list: combination Emax per entry.
Keep the answer to the number alone.

Look over these answered cases.
compound	combination Emax
CC1(C)CCC(CN2CCN(c3ccc(C(=O)NS(=O)(=O)c4ccc(NCC5CCOCC5)c([N+](=O)[O-])c4)c(Oc4cnc5[nH]ccc5c4)c3)CC2)=C(c2ccc(Cl)cc2)C1 [Venetoclax] + CS(=O)(=O)CCNCc1ccc(-c2ccc3ncnc(Nc4ccc(OCc5cccc(F)c5)c(Cl)c4)c3c2)o1 [Lapatinib] (first compound max 1 µM, 7x7, partner max 10 µM)	0.213
CC(=O)c1c(C)c2cnc(Nc3ccc(N4CCNCC4)cn3)nc2n(C2CCCC2)c1=O [Palbociclib] + Cn1cnc2c(F)c(Nc3ccc(Br)cc3Cl)c(C(=O)NOCCO)cc21 [Selumetinib] (first compound max 10 µM, 7x7, partner max 10 µM)	0.523

Note: attention shifts to another entry.
Q. State the recorded combination Emax for this entry: Cc1c2c(nn1C)CSCc1cc(n(C)n1)CSc1cc(c3ccccc3c1)OCCCc1c(C(=O)O)n(C)c3c-2c(Cl)ccc13 [AZD5991] + CN(C)CCCOc1ccc(-c2ccc3ncc4c(c3c2)n(C2CCOCC2)c(=O)n4C)cn1 [AZD0156] (first compound max 1 µM, 7x7, partner max 1 µM)
A. 0.247

====

tested on: ME-180 (Cervical Carcinoma); assay: combination Emax (second highest fraction inhibited in the dose matrix, 72 h); higher = more inhibition; extreme values may be limits of the assay
Entries and their combination Emax values follow.
I'd appreciate a reply containing only the number, no unit.

molecule	testedTarget	combination Emax
Cc1cc2ncnn2cc1Nc1ncc2c(n1)n(C1CCOCC1)c(=O)n2C [AZD7648] + CN(C)CCCOc1ccc(-c2ccc3ncc4c(c3c2)n(C2CCOCC2)c(=O)n4C)cn1 [AZD0156] (first compound max 10 µM, 7x7, partner max 1 µM)	ME-180 (Cervical Carcinoma)	0.326

Pending molecule:
Q. Tell me the measured combination Emax of CN(CCO)CC[C@H](CSc1ccccc1)Nc1ccc(S(=O)(=O)NC(=O)c2ccc(N3CCC([C@@H](O)c4ccccc4-c4ccc(Cl)cc4)CC3)cc2)cc1S(=O)(=O)C(F)(F)F [AZD4320] + Nc1ccn([C@@H]2O[C@H](CO)[C@@H](O)C2(F)F)c(=O)n1 [Gemcitabine] (first compound max 1 µM, 7x7, partner max 0.3 µM) , please.
A. 0.878
